assay_target: recombinant OCTN1 (Homo sapiens, UniProt Q9H015)
Construct: made in house; host or cells: E. coli
Sequence (Q9H015 whole entry): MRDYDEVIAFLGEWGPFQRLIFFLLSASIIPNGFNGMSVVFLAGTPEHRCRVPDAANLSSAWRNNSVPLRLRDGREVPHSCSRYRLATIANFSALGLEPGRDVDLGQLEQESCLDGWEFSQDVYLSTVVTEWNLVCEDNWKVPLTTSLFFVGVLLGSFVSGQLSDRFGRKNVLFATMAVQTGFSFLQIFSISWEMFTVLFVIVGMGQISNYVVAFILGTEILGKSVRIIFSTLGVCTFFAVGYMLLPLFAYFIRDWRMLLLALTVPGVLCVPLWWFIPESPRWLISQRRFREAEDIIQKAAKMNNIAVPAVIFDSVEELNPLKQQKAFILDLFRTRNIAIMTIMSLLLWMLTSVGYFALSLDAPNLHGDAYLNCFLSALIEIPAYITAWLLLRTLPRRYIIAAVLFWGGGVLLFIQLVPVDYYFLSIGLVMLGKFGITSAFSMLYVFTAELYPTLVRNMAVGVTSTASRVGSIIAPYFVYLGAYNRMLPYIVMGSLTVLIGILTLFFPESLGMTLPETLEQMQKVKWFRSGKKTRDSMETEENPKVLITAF
assay_info: [3H]-acetylcholine uptake in proteoliposomes reconstituted with recombinant OCTN1 over-expressed in E. coli
Type: biochemical
condition_notes: [3H]-acetylcholine uptake 0.1 mM, 20 min, in the absence of CHS
measure: IC50 (µM)

C[N+]1(C)CCOC(O)(c2ccc(-c3ccc(C4(O)C[N+](C)(C)CCO4)cc3)cc2)C1 (stereo not shown) ... 530

====

assay_target: recombinant OCTN1 (Homo sapiens)
Construct: made in house; host or cells: E. coli
assay_info: [14C]-TEA uptake in proteoliposomes reconstituted with recombinant OCTN1 over-expressed in E. coli
Format: biochemical
condition_notes: [14C]-TEA uptake 0.1 mM, 20 min, in the presence of 8.3% CHS
measure: IC50 (µM)

CC[N+](CC)(CC)Cc1ccccc1 ... 1900
[Na+] ... 1700
[Cl][Hg][Cl] ... 200

All values here come from paper PMC7037232.
